Just for reference, the supplement of paper PMC9112550 is where these values come from.

# System: Escherichia coli TOP10;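 also: peptides expressed intracellularly from a pBAD plasmid library in pooled LB shake-flask culture, induced with 0.3% L-arabinose, DNA abundance read by NGS, three biological replicates, DESeq2 with apeglm shrinkage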
# ASSAY REMARKS: shrunken log2 fold change of peptide-encoding DNA abundance (4.5 h post-induction vs induction); higher = less antimicrobial activity (less host growth inhibition)
# ASSAY SETUP: time post-induction: 4.5 h; library: site-saturation at positions 5, 18, 19, 20
ENDPOINT: shrunken log2 fold change
Form field (numeric): enter value without unit.

query: What measured shrunken log2 fold change is associated with RRIRQRPPRLPRPRPRPYFHPRP on Escherichia coli TOP10?
result: -0.563

query: What measured shrunken log2 fold change is associated with RRIRPRPPRLPRPRPRPECSPRP on Escherichia coli TOP10?
result: -0.0845

query: What measured shrunken log2 fold change is associated with RRIRYRPPRLPRPRPRPNHYPRP on Escherichia coli TOP10?
result: -0.739

query: What measured shrunken log2 fold change is associated with RRIRMRPPRLPRPRPRPKNGPRP on Escherichia coli TOP10?
result: 0.0732

query: What measured shrunken log2 fold change is associated with RRIRWRPPRLPRPRPRPTHYPRP on Escherichia coli TOP10?
result: 0.0892

query: What measured shrunken log2 fold change is associated with RRIRMRPPRLPRPRPRPCMYPRP on Escherichia coli TOP10?
result: 0.051

query: What measured shrunken log2 fold change is associated with RRIRKRPPRLPRPRPRPGATPRP on Escherichia coli TOP10?
result: 1.09

query: What measured shrunken log2 fold change is associated with RRIRPRPPRLPRPRPRPHTDPRP on Escherichia coli TOP10?
result: -0.327

query: What measured shrunken log2 fold change is associated with RRIRRRPPRLPRPRPRPDLCPRP on Escherichia coli TOP10?
result: 0.00591

query: What measured shrunken log2 fold change is associated with RRIRQRPPRLPRPRPRPHGWPRP on Escherichia coli TOP10?
result: -0.0188

query: What measured shrunken log2 fold change is associated with RRIRARPPRLPRPRPRPNPHPRP on Escherichia coli TOP10?
result: 0.0863

query: What measured shrunken log2 fold change is associated with RRIRARPPRLPRPRPRPGEYPRP on Escherichia coli TOP10?
result: 0.0829

query: What measured shrunken log2 fold change is associated with RRIRVRPPRLPRPRPRPFTKPRP on Escherichia coli TOP10?
result: -0.79

query: What measured shrunken log2 fold change is associated with RRIRNRPPRLPRPRPRPTYFPRP on Escherichia coli TOP10?
result: -0.147

query: What measured shrunken log2 fold change is associated with RRIRVRPPRLPRPRPRPWRWPRP on Escherichia coli TOP10?
result: 0.48

query: What measured shrunken log2 fold change is associated with RRIRIRPPRLPRPRPRPHHIPRP on Escherichia coli TOP10?
result: -0.641

query: What measured shrunken log2 fold change is associated with RRIRCRPPRLPRPRPRPMENPRP on Escherichia coli TOP10?
result: 0.0267

query: What measured shrunken log2 fold change is associated with RRIRIRPPRLPRPRPRPNYCPRP on Escherichia coli TOP10?
result: -0.139

query: What measured shrunken log2 fold change is associated with RRIRRRPPRLPRPRPRPQYGPRP on Escherichia coli TOP10?
result: -0.409

query: What measured shrunken log2 fold change is associated with RRIRHRPPRLPRPRPRPIQNPRP on Escherichia coli TOP10?
result: -0.252

query: What measured shrunken log2 fold change is associated with RRIRERPPRLPRPRPRPNELPRP on Escherichia coli TOP10?
result: -0.0227

query: What measured shrunken log2 fold change is associated with RRIRIRPPRLPRPRPRPWLEPRP on Escherichia coli TOP10?
result: -0.293

query: What measured shrunken log2 fold change is associated with RRIRSRPPRLPRPRPRPFVYPRP on Escherichia coli TOP10?
result: -0.368

query: What measured shrunken log2 fold change is associated with RRIRKRPPRLPRPRPRPLLIPRP on Escherichia coli TOP10?
result: -0.11

query: What measured shrunken log2 fold change is associated with RRIRPRPPRLPRPRPRPMFEPRP on Escherichia coli TOP10?
result: 0.0626
